This collection of values is drawn from patent US20240270821A1.

molecular target: human GcgR (Homo sapiens, UniProt P47871); experiment: Functional cAMP activity in the presence of 1% HSA; type: cell-based; settings: read-out: cAMP Rel EC50, hGcgR
Sequence (P47871 26-477): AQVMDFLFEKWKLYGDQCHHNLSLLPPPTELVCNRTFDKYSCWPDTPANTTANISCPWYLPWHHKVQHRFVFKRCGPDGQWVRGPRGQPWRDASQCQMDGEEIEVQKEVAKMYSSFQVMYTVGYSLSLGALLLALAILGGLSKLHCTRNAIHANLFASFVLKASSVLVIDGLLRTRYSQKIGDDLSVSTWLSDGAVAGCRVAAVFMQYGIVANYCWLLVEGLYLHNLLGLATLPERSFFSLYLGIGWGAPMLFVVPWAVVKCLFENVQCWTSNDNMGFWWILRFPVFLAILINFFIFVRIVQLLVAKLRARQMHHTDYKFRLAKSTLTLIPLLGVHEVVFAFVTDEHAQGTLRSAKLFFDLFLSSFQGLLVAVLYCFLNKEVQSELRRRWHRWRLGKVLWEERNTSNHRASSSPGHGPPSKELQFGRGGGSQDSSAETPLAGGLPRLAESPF
pEC50: −log10 of the molar value. Starred links: 1 amine or outer side, 2 acyl side, 3 side chain; linkers in the order of their positions; H or OH if unused. Non-standard residues stand in square brackets, D forms with d. Groups on a side chain read outwards from the residue. No end group written: not given here. *: point of attachment. C18 diacid = O=C(O)CCCCCCCCCCCCCCCCC(=O)*; αMePhe(2-F) = C[C@](N)(Cc1ccccc1F)C(=O)O; γGlu = O=C(O)[C@H](CCC(=O)[*:2])N[*:1]; αMe4Pal = C[C@](N)(Cc1ccncc1)C(=O)O; αMeY = C[C@](N)(Cc1ccc(O)cc1)C(=O)O; αMeF = C[C@](N)(Cc1ccccc1)C(=O)O; 4Pal = N[C@@H](Cc1ccncc1)C(=O)O; αMeL = CC(C)C[C@](C)(N)C(=O)O; αMeS = C[C@](N)(CO)C(=O)O; Orn = NCCC[C@H](N)C(=O)O; AEEA = NCCOCCOCC(=O)O; Aib = CC(C)(N)C(=O)O
Assign t whenever pEC50 does not fall below 6; assign f whenever it does.

Solved cases below.
Y[Aib]QGT[αMePhe(2-F)]TSD[4Pal][αMeS]I[αMeL]LD[Orn]K([γGlu-γGlu-C18 diacid])AQ[αMe4Pal]EFI[dE][αMeY]LVEGGPSSGEPPPSGSEE-NH2 [Example 740] ... t
Y[Aib]QGTFTSD[4Pal]SQ[αMeL]LDKK([AEEA-γGlu-C18 diacid])AQ[αMe4Pal]AFIEYLIE[Aib]GPSSGAPPPSGS-NH2 [Example 810] ... t
H-Y[Aib]QGTFTSD[4Pal]SQ[αMeL]LDKK([Glu-γGlu-C18 diacid])AQ[αMe4Pal]AFIEYLIAGGPSSGAPPPSGSEE-NH2 [Example 1030] ... f
H-Y[Aib]QGTFTSDFS[Orn][αMeL]LDKK([AEEA-γGlu-C18 diacid])AQ[αMe4Pal]AFIEYLIE[Aib]GPSSGAPPPSGS-NH2 [Example 811] ... t
H-Y[Aib]QGTFTSDFS[Orn][αMeL]LDKK([AEEA-γGlu-C18 diacid])AQ[Aib]AFIEYLLEGGPSSGAPPPGG[4Pal]-NH2 [Example 261] ... t
H-Y[Aib]QGT[αMePhe(2-F)]TSD[4Pal][αMeS]I[αMeL]LD[Orn]K([AEEA-γGlu-C18 diacid])AQ[αMe4Pal]EFI[dE][αMeY]LVEGGPSSGEPPPTGE-NH2 [Example 1153] ... t
H-Y[Aib]QGTFTSD[4Pal]SQ[αMeL]LDKK([AEEA-γGlu-C18 diacid])AQ[Aib]AFIE[αMeY]LLEGGPSSGAPPPSGS-NH2 [Example 910] ... f
H-Y[Aib]QGTFTSD[4Pal]SQ[αMeL]LD[Orn]K([AEEA-γGlu-C18 diacid])AQ[αMe4Pal]AFIE[αMeY]LIEGGPSSGAPPPSGSEE-NH2 [Example 1041] ... f
H-Y[Aib]QGTFTSD[4Pal]S[Orn][αMeL]LDKK([γGlu-γGlu-C18 diacid])AQ[αMe4Pal]AFIEYLIAGGPSSGEPPPSGE-NH2 [Example 979] ... t

pEC50 >= 6 for Y[Aib]QGT[αMeF]TSD[4Pal][αMeS]I[αMeL]LD[Orn]K([AEEA-γGlu-C18 diacid])AQ[αMe4Pal]EFI[dE][αMeY]LIEGGPSSGEPPPSGE-NH2 [Example 1165] ?
t
